Organism: Mus musculus
METHOD_SUMMARY: Selectivity ratio of EC50 for mouse MC3R to EC50 for mouse MC1R
Square brackets hold non-standard residues; d marks the D form. Peptide text beside a SMILES is read from it. Dap = NC[C@H](N)C(=O)O
I'd be grateful if you could share measured Ratio EC50 for these entries.

Input N=C(N)NCCC[C@@H]1NC(=O)[C@@H](Cc2ccccc2)NC(=O)[C@H](Cc2cnc[nH]2)NC(=O)[C@@H]2CCCN2C(=O)[C@H]2CCCN2C(=O)[C@H](CN)NC(=O)[C@H](Cc2c[nH]c3ccccc23)NC1=O (cyclo(H[dF]RW[Dap][dP]P)) . Output Ratio EC50: > 100

Input N=C(N)NCCC[C@@H]1NC(=O)[C@@H](Cc2ccccc2)NC(=O)[C@@H]2CCCN2C(=O)[C@H]2CCCN2C(=O)[C@H](CC(N)=O)NC(=O)[C@H](Cc2c[nH]c3ccccc23)NC1=O (cyclo(P[dF]RWN[dP])) . Output Ratio EC50: > 2500

Input C[C@@H]1NC(=O)[C@H](CC(N)=O)NC(=O)[C@H](Cc2c[nH]c3ccccc23)NC(=O)[C@H](CCCNC(=N)N)NC(=O)[C@@H](Cc2ccccc2)NC(=O)[C@@H]2CCCN2C(=O)[C@H]2CCCN2C1=O (cyclo(P[dF]RWNA[dP])) . Output Ratio EC50: > 100

Input C[C@@H]1NC(=O)[C@H](CC(N)=O)NC(=O)[C@H](Cc2c[nH]c3ccccc23)NC(=O)[C@H](CCCNC(=N)N)NC(=O)[C@@H](Cc2ccccc2)NC(=O)[C@@H]2CCCN2C(=O)[C@H]2CCCN2C(=O)[C@H](Cc2ccccc2)NC1=O (cyclo(P[dF]RWNAF[dP])) . Output Ratio EC50: > 100

Input N=C(N)NCCC[C@@H]1NC(=O)[C@@H](Cc2ccccc2)NC(=O)[C@@H]2CCCN2C(=O)[C@H]2CCCN2C(=O)[C@H](CN)NC(=O)[C@H](Cc2c[nH]c3ccccc23)NC1=O (cyclo(P[dF]RW[Dap][dP])) . Output Ratio EC50: > 500

---

ASSAYED_TARGET: Melanocortin receptor 3 (Mus musculus) (UniProt P33033)
Sequence (P33033 whole entry): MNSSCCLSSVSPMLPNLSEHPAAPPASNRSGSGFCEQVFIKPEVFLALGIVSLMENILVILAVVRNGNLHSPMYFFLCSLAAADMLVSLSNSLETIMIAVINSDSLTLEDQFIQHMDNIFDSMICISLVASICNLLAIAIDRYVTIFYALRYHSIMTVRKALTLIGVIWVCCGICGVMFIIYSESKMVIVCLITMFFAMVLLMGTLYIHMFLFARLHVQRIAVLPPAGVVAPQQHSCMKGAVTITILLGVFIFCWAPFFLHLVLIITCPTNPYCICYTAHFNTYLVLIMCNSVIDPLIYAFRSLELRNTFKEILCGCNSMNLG
METHOD_SUMMARY: Agonist activity at mouse MC3R expressed in HEK293 cells assessed as increase in forskolin-induced cAMP accumulation at 100 uM preincubated for 2 hrs followed by biotinylated cAMP addition and subsequent incubation for 2 hrs by AlphaScreen assay relative to NDP-MSH
Assay type: functional, cell-based
Square brackets hold non-standard residues; d marks the D form. Peptide text beside a SMILES is read from it. Dap = NC[C@H](N)C(=O)O
MEASURE_NAME: Activity (%)
Kindly provide the numeric value in % only, without the unit symbol.

Input C[C@@H]1NC(=O)[C@H](CN)NC(=O)[C@H](Cc2c[nH]c3ccccc23)NC(=O)[C@H](CCCNC(=N)N)NC(=O)[C@@H](Cc2ccccc2)NC(=O)[C@@H]2CCCN2C(=O)[C@H]2CCCN2C1=O (cyclo(P[dF]RW[Dap]A[dP])) . Output Activity: 70

Input C[C@@H]1NC(=O)[C@H](CC(N)=O)NC(=O)[C@H](Cc2c[nH]c3ccccc23)NC(=O)[C@H](CCCNC(=N)N)NC(=O)[C@@H](Cc2ccccc2)NC(=O)[C@@H]2CCCN2C(=O)[C@H]2CCCN2C(=O)[C@H](Cc2ccccc2)NC1=O (cyclo(P[dF]RWNAF[dP])) . Output Activity: 45

Input N=C(N)NCCC[C@@H]1NC(=O)[C@@H](Cc2ccccc2)NC(=O)[C@H](Cc2cnc[nH]2)NC(=O)[C@@H]2CCCN2C(=O)[C@H]2CCCN2C(=O)[C@H](Cc2c[nH]c3ccccc23)NC1=O (cyclo(H[dF]RW[dP]P)) . Output Activity: 60

Input C[C@@H]1NC(=O)[C@H](CC(N)=O)NC(=O)[C@H](Cc2c[nH]c3ccccc23)NC(=O)[C@H](CCCNC(=N)N)NC(=O)[C@@H](Cc2ccccc2)NC(=O)[C@@H]2CCCN2C(=O)[C@H]2CCCN2C1=O (cyclo(P[dF]RWNA[dP])) . Output Activity: 55

Input N=C(N)NCCC[C@@H]1NC(=O)[C@@H](Cc2ccccc2)NC(=O)[C@H](Cc2cnc[nH]2)NC(=O)[C@@H]2CCCN2C(=O)[C@H]2CCCN2C(=O)[C@H](CN)NC(=O)[C@H](Cc2c[nH]c3ccccc23)NC1=O (cyclo(H[dF]RW[Dap][dP]P)) . Output Activity: 65

Input C[C@@H]1NC(=O)[C@H](CN)NC(=O)[C@H](Cc2c[nH]c3ccccc23)NC(=O)[C@H](CCCNC(=N)N)NC(=O)[C@@H](Cc2ccccc2)NC(=O)[C@@H]2CCCN2C(=O)[C@H]2CCCN2C(=O)[C@H](Cc2ccccc2)NC1=O (cyclo(P[dF]RW[Dap]AF[dP])) . Output Activity: 70

Data origin, for the record: ChEMBL document CHEMBL3994610
